Tested on: RPMI-8226
Experiment: Cellular RPMI-8226 viability assay (CellTiter-Glo, 72 hours)
Assay type: cell-based
Recorded Conditions: Homo sapiens
Quantity Kind: IC50

A selection of reference data follows.
given_smiles=CC(C)c1cnn2c(NCc3cccc(-c4cc5ccccc5[nH]4)c3)nc(N3CCC(N)CC3)nc12 quantity_kind=IC50 observed="< 1000 nM"
given_smiles=CC(C)c1cnn2c(NCc3ccccc3Oc3ccccc3)nc(N3CCC(N)CC3)nc12 quantity_kind=IC50 observed="1000 to 10000 nM"
given_smiles=CC(C)c1cnn2c(NCc3ccccc3-c3cccs3)nc(N3CCC(N)CC3)nc12 quantity_kind=IC50 observed="< 1000 nM"
given_smiles=CC(C)c1cnn2c(NCc3ccccc3-c3cc4cccc(F)c4[nH]3)nc(N3CCC(N)CC3)nc12 quantity_kind=IC50 observed="< 1000 nM"
given_smiles=COc1cccc(-n2cccn2)c1CNc1nc(N2CCC(N)CC2)nc2c(C(C)C)cnn12 quantity_kind=IC50 observed="1000 to 10000 nM"
given_smiles=CC(C)c1cnn2c(NCc3c(Cl)cccc3-n3cccn3)nc(N3CCC(N)CC3)nc12 quantity_kind=IC50 observed="< 1000 nM"
given_smiles=CC(C)c1cnn2c(NCc3ccccc3-c3ccc4ccccc4n3)cc(N3CCC(N)CC3)nc12 quantity_kind=IC50 observed="1000 to 10000 nM"
given_smiles=CC(C)c1cnn2c(NCc3ccccc3-c3cc4ccccc4[nH]3)nc(OC3CCN(C)CC3)nc12 quantity_kind=IC50 observed="1000 to 10000 nM"
given_smiles=CC(C)c1cnn2c(NCc3cccc4ccc(C5CC5)nc34)nc(N3CCC(N)CC3)nc12 quantity_kind=IC50 observed="1000 to 10000 nM"
given_smiles=CC(C)c1cnn2c(NCc3ccccc3-c3cc4ccccc4[nH]3)nc(N3CCC(N)(CO)CC3)nc12 quantity_kind=IC50 observed="< 1000 nM"

Provide RPMI-8226 IC50 reading for "CC(=O)c1ccc2nn(-c3ccccc3CNc3nc(N4CCC(N)CC4)nc4c(C(C)C)cnn34)cc2c1" .
< 1000 nM

For RPMI-8226, give IC50 of the listed compound: "CC(C)Oc1ccc2cn(-c3ccccc3CNc3nc(N4CCC(N)CC4)nc4c(C(C)C)cnn34)nc2c1"
< 1000 nM

Under RPMI-8226, report IC50 for "Cc1cccc(-n2cccn2)c1CNc1nc(N2CCC(N)CC2)nc2c(C(C)C)cnn12"
1000 to 10000 nM

Cited source: patent US11945822B2
